Source: ChEMBL document CHEMBL4387787

Assay: Antiproliferative activity against mouse L5178Y cells transfected with ABCB1 by MTT assay
Format: ADME, cell-based
Conditions: read-out: ID50 (the source's name)
value-kind: GI50 (µM)
Express it in µM; write the number only.

Record CC(=O)C[C@@H](C)[C@H]1CC[C@@]2(C)[C@@H]3C(=O)[C@@H]4C(C)(C)[C@@]45C(=O)CC[C@H]5[C@]3(C)CC[C@]12C . Reported GI50: 68.3

***
The reported value for C=C(C)/C=C/C[C@@H](C)[C@H]1CC[C@@]2(C)[C@@H]3C(=O)[C@@H]4C(C)(C)[C@@]45C(=O)CC[C@H]5[C@]3(C)CC[C@]12C in terms of GI50 is 37.6

###

Experiment: Antiproliferative activity against mouse L5178Y cells by MTT assay
Assay type: cell-based
Settings: read-out: ID50 (the source's name)
value-kind: GI50 (µM)
// return numeric value only (unit: µM, not printed)

response.value for CC(=O)C[C@@H](C)[C@H]1CC[C@@]2(C)[C@@H]3C(=O)[C@@H]4C(C)(C)[C@@]45C(=O)CC[C@H]5[C@]3(C)CC[C@]12C (field: GI50) = 72.2

Alright, here's another molecule for you.
For reference, reported GI50 for C=C(C)/C=C/C[C@@H](C)[C@H]1CC[C@@]2(C)[C@@H]3C(=O)[C@@H]4C(C)(C)[C@@]45C(=O)CC[C@H]5[C@]3(C)CC[C@]12C stands at 20.7
